test: Visual observation of test solutions for deposition of crystals or white turbidity
Format: physicochemical
Design: key: +: turbidity found; −: no turbidity
recorded conditions: after storage at 4° C. for 3 months; agent added 1.5 mM
property label: turbidity (visual observation)

compound	result
OCC1OC(OCC2OC3OC4C(CO)OC(OC5C(CO)OC(OC6C(CO)OC(OC7C(CO)OC(OC8C(CO)OC(OC9C(CO)OC(OC2C(O)C3O)C(O)C9O)C(O)C8O)C(O)C7O)C(O)C6O)C(O)C5O)C(O)C4O)C(O)C(O)C1O (centres unmarked)	−
OCC1OC(OC2C(CO)OC(OCC3OC4OC5C(CO)OC(OC6C(CO)OC(OC7C(CO)OC(OC8C(CO)OC(OC9C(CO)OC(OC%10C(CO)OC(OC3C(O)C4O)C(O)C%10O)C(O)C9O)C(O)C8O)C(O)C7O)C(O)C6O)C(O)C5O)C(O)C2O)C(O)C(O)C1O (centres unmarked)	−

* * *

measurement target: Inactive α-amylase (from swine pancreas) (Sus scrofa, UniProt P00690)
Construct: α-amylase derived from the swine pancreas; from tissue; host or cells: swine pancreas
Sequence (P00690 16-511): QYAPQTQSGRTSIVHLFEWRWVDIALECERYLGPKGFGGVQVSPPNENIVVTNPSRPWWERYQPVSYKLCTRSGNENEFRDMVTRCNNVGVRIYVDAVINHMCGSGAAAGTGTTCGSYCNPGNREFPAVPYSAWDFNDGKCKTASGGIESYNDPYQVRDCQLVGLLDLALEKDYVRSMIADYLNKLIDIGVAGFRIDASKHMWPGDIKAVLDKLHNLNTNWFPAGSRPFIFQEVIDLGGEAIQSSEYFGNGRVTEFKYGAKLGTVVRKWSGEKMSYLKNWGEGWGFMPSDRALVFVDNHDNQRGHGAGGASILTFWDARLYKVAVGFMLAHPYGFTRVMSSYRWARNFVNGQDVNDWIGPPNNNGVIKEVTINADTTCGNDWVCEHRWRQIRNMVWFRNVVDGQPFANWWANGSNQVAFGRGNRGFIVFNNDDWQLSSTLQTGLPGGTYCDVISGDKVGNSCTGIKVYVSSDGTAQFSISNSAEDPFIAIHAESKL
test: Relative sensitivity in determination of calcium with 10 mg/dl calcium standard solution
Type: biochemical
recorded conditions: just after the preparation; 10 mg/dl calcium standard; agent 12 mM
Let's look at some compounds and their measured Relative sensitivity (%) when sensitivity in case of no addition is taken as 100%.
Dear colleague, please return just the value in %, with no unit written.

Would you please look over these solved cases?
compound	unit string	numeric readout
OCC1OC(OCC2OC3OC4C(CO)OC(OC5C(CO)OC(OC6C(CO)OC(OC7C(CO)OC(OC8C(CO)OC(OC9C(CO)OC(OC2C(O)C3O)C(O)C9O)C(O)C8O)C(O)C7O)C(O)C6O)C(O)C5O)C(O)C4O)C(O)C(O)C1O (stereo not drawn) [G1βCD, glucosyl-β-cyclodextrin]	%	122.5
OCC1OC(OCC2OC3OC4C(CO)OC(OC5C(CO)OC(OC6C(CO)OC(OC7C(CO)OC(OC8C(CO)OC(OC2C(O)C3O)C(O)C8O)C(O)C7O)C(O)C6O)C(O)C5O)C(O)C4O)C(O)C(O)C1O (stereo not drawn) [G1αCD, glucosyl-α-cyclodextrin]	%	118.9
OCC1OC(OC2C(CO)OC(OCC3OC4OC5C(CO)OC(OC6C(CO)OC(OC7C(CO)OC(OC8C(CO)OC(OC9C(CO)OC(OC3C(O)C4O)C(O)C9O)C(O)C8O)C(O)C7O)C(O)C6O)C(O)C5O)C(O)C2O)C(O)C(O)C1O (stereo not drawn) [G2αCD, maltosyl-α-cyclodextrin]	%	122.8

Consider now this further compound.
(Q) Which value of Relative sensitivity (%) when sensitivity in case of no addition is taken as 100% has been reported for OCC1OC(OC2C(CO)OC(OCC3OC4OC5C(CO)OC(OC6C(CO)OC(OC7C(CO)OC(OC8C(CO)OC(OC9C(CO)OC(OC%10C(CO)OC(OC3C(O)C4O)C(O)C%10O)C(O)C9O)C(O)C8O)C(O)C7O)C(O)C6O)C(O)C5O)C(O)C2O)C(O)C(O)C1O (stereo not drawn) [G2βCD, maltosyl-β-cyclodextrin] in the records?
(A) 123.0
